Experiment: PAMPA intestinal model (GIT)
Format: in vitro ADME
Settings: read-out: plasma protein binding percentage
Listed next: entries and their corresponding fraction unbound at 16 h, 300 µM.
observed-property: fraction unbound at 16 h, 300 µM

> print(dat)
                                   molecule                 observed.property  recorded.result
1  C/C=C/c1ccc(OC)c(OC)c1 [4a, 1,2-dimethoxy-4-[(E)-prop-1-enyl]benzene]  fraction unbound at 16 h, 300 µM            < 0.1
2                       C=CCc1ccc(O)c(OC)c1  fraction unbound at 16 h, 300 µM            < 0.1
3                         COc1ccc(C=O)cc1OC  fraction unbound at 16 h, 300 µM            < 0.1

###

Test: Cytotoxicity against mammalian cells (MTT)
Type: cell-based, Murine
Details: mouse, NCTC clone L929 cells
Listed next: entries and their corresponding CC50 at 48 h.
observed-property: CC50 at 48 h

> print(dat)
                                   compound  observed.property  recorded.result
1  C=CCOc1ccc(CO)cc1OC [3c, (4-allyloxy-3-methoxy-phenyl)methanol]       CC50 at 48 h         > 200 µM
2                COc1cc(CO)ccc1OC(C)=O [3b]       CC50 at 48 h          45.8 µM
3  C=CCOc1ccc([C@H]2Oc3c(OC)cc(/C=C/C)cc3[C@@H]2C)cc1OC [1c]       CC50 at 48 h         > 200 µM
4              C=CCOc1ccc(/C=C/C)cc1OC [4c]       CC50 at 48 h         > 200 µM
5  O=C(Cn1ccnc1[N+](=O)[O-])NCc1ccccc1 [Bnz, benznidazole, reference compound]       CC50 at 48 h         > 200 µM

###

Assay: Cytotoxicity against mammalian cells (MTT)
Format: cell-based, Murine
Settings: mouse, NCTC clone L929 cells
observed-property: CC50 at 48 h

> print(dat)
                                   compound  observed.property  recorded.result
1  C=CCOc1ccc(CC=C)cc1OC [5c, 4-allyl-1-allyloxy-2-methoxy-benzene]       CC50 at 48 h         > 200 µM
2  C/C=C/c1cc(OC)c2c(c1)[C@H](C)[C@@H](c1ccc(OC)c(OC)c1)O2 [1a]       CC50 at 48 h         > 200 µM
3            C=CCc1cc(/C=C/C)cc(OC)c1O [4d]       CC50 at 48 h         > 200 µM
4  C=CCc1ccc(O)c(OC)c1 [compound 5, eugenol]       CC50 at 48 h         > 200 µM
5  C=CCc1cc(C=O)cc(OC)c1O [2d, 3-allyl-4-hydroxy-5-methoxy-benzaldehyde]       CC50 at 48 h         > 200 µM
6  C=CCc1ccc(OC(C)=O)c(OC)c1 [5b, (4-allyl-2-methoxy-phenyl) acetate]       CC50 at 48 h         > 200 µM
7  C=CCOc1ccc(C=O)cc1OC [2c, 4-allyloxy-3-methoxy-benzaldehyde]       CC50 at 48 h         > 200 µM
8  C=CCc1cc([C@H]2Oc3c(OC)cc(/C=C/C)cc3[C@@H]2C)cc(OC)c1O [1d]       CC50 at 48 h          45.5 µM
9  C=CCc1ccc(OC)c(OC)c1 [5a, 4-allyl-1,2-dimethoxy-benzene]       CC50 at 48 h         > 200 µM
